Each recorded value in this set is attributed to PubChem BioAssay.

The following molecules are shown together with reported z-score values.
Test: A549 cell viability effects, profiling panel, calcein-AM fluorescence, 48 h, basal (AID 1162); also: test concentration not given here
Settings: higher = more signal
quantity: z-score

1) COCCOC(=O)N1C(=O)[C@@]2(c3ccccc31)[C@H](c1ccc(O)cc1)N1[C@H](c3ccccc3)[C@H](c3ccccc3)OC(=O)[C@H]1[C@@H]2C(=O)Nc1nc2ccccc2s1; 0.982
2) CCS[C@H]1[C@@H](C(=O)O)[C@H](c2ccc(C)cc2)N(S(=O)(=O)c2ccc(C)cc2)[C@@H]1CC; -0.408
3) CC1CC/C=C\[C@H]2OC34C=CCN(Cc5ccccc5)C(=O)[C@H]3N(CCCO)C(=O)[C@@H]4C2C(=O)O1 (stereo partly specified); -0.0905
4) O=C(N1CCCCC1)[C@]1(Cc2ccccc2)N=C(c2ccc(OCCCO)cc2)O[C@@H]1c1ccccc1; -1.69
5) [N-]=[N+]=Nc1ccccc1[C@@H]1OC(c2ccc(OCCCO)cc2)=N[C@]1(CCS(=O)(=O)c1ccccc1)C(N)=O; -0.811
6) C=CCOC(=O)[C@H]1[C@@H]2C(=O)O[C@@H](c3ccccc3)[C@@H](c3ccccc3)N2[C@@H](c2ccc(OCCOC(=O)[C@H]3C[C@H]4C(=O)N[C@@H](CCCCN(C)C)C(=O)N4[C@H]3c3ccc(O)cc3)cc2)[C@]12C(=O)Nc1ccc(I)cc12; -0.041
7) CO[C@H]1O[C@H](CO)[C@@H](OC(=O)Nc2ccc(C(F)(F)F)cc2)[C@H](OC(=O)Nc2ccc3c(c2)OCO3)[C@@H]1OC(=O)Nc1ccc2c(c1)OCO2; -0.903
8) COC(=O)[C@@]1(Cc2ccc(OC)cc2)[C@H]2c3cc(C(=O)N(C)C)n(Cc4ccc(S(C)(=O)=O)cc4)c3C[C@H]2CN1C(=O)c1ccccc1; 2.88
9) COc1ccc([Si](C)(C)[C@H]2[C@H](CCO)O[C@@]3(C(=O)N(Cc4ccc(N(C=O)c5ccccc5)cc4)c4ccccc43)[C@@H]2C)cc1; -0.585
10) COCCOC(=O)N1C(=O)[C@@]2(c3cc(C#CCC(C(=O)OC)C(=O)OC)ccc31)[C@H](C(=O)N1CCN(c3ncccn3)CC1)[C@H]1C(=O)O[C@H](c3ccccc3)[C@H](c3ccccc3)N1[C@@H]2c1ccccc1OCCO; 0.0182
11) CCCC[C@@H]1C[C@H]1[C@@H](NC(=O)c1cccs1)c1ccc(-c2ccccc2)cc1; -0.997

----------
Assay: compound binding in COS7 lysate, probe aLAP1, primary screen, cell lysate, small-molecule microarray (AID 1124);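 also: lysate comes from COS7 cells expressing LAP1 and is applied at 0.3 µg/mL; score merges spot fluorescence near 667 nm with signal-to-noise over triplicate slides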
Conditions: probe aLAP1, fluorescence, higher = more signal
Cut-off 0.02 on composite z-score, inclusive. At or above means yes; below means no.

1) COC(=O)[C@@]1(Cc2ccc(OC)cc2)[C@H]2c3cc(C(=O)N(C)C)n(CCc4ccccn4)c3C[C@H]2CN1C(=O)c1ccccc1; yes
2) COC(=O)[C@@]1(Cc2ccccc2)N=C(c2ccc(OCCCO)cc2)O[C@H]1c1ccccc1; yes
3) C=C(CCCC)/C(=C/C[C@H](OC(=O)c1ccncc1)c1ccccc1OCCO)c1cnc2ccccc2c1; yes
4) CNS(=O)(=O)c1ccc(C)cc1; yes
5) CC1(C)[C@@H]2CC(C(O)C3C=CC4C(=O)N(c5ccccc5)C(=O)C4N3Nc3ccc([N+](=O)[O-])cc3)=C[C@H]1C2 (some centres not stated); no
6) CC(C)[Si](C#Cc1ccc(Oc2ccccc2)cc1)(O[Si](C#Cc1ccc(Oc2ccccc2)cc1)(C(C)C)C(C)C)C(C)C; yes
7) C=CCNC(=O)[C@@H]1[C@H]2C(=O)O[C@H](c3ccccc3)[C@H](c3ccccc3)N2[C@H](c2ccc(OCCO)cc2)[C@@]12C(=O)Nc1ccc(C#CCC(C(=O)OC)C(=O)OC)cc12; yes
8) CC(C)C[C@@H]1NC(=O)[C@H](C(C)C)NC(=O)[C@@]23C(=O)N[C@@H](Cc4ccccc4)C2[C@H](C)[C@@]2(C)O[C@H]2C3/C=C/CC/C=C/CNC1=O (some centres not stated); no
9) C=CCN1C(=O)[C@]2(O[C@H](CCn3cc([C@H](O)c4ccccc4)nn3)[C@@H]([Si](C)(C)c3ccc(OC)cc3)[C@@H]2C)c2cc(N3CCC3=O)ccc21; yes
10) C=CCOC(=O)[C@@H]1[C@H]2C(=O)O[C@H](c3ccccc3)[C@H](c3ccccc3)N2[C@H](c2ccc(OCCOC(=O)[C@H]3C[C@H]4C(=O)N5CCC[C@H]5C(=O)N4[C@H]3c3ccc(O)cc3)cc2)[C@@]12C(=O)Nc1ccc(I)cc12; no
11) COC(=O)[C@@]1(Cc2ccc(OC)cc2)[C@H]2c3cc(C(=O)N(C)C)n(Cc4ccc(S(C)(=O)=O)cc4)c3C[C@H]2CN1C(=O)c1ccccc1; yes
12) C=CCC(OC(C)=O)[C@@H]1[C@@H](N(Cc2ccc(-c3ccccc3)cc2)C(=O)c2ccc(-c3ccccc3)cc2)c2cc(OCCCO)ccc2N1C(=O)Cc1ccc2ccccc2c1 (some centres not stated); no
